This collection of values is drawn from patent US20240368267A1.

target: T1, human IL-6 (human, UniProt P05231 30-212); assay: SPR (Biacore T200), purified antibody captured on Protein A, IL-6 flowed over, 37 C
T1 construct: also called interleukin-6
T1 sequence (P05231 30-212 limits assumed): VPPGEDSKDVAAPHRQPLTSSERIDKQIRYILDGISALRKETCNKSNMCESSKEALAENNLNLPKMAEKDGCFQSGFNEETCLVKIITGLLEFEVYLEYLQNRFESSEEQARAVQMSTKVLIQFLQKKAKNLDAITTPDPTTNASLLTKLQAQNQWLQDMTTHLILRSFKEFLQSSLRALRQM
Below: a set of entries, each annotated with reported pKd.
In plain terms, pKd is the concentration in mol/L turned into minus its base-10 logarithm.

binder	property.measured	measured.value
anti-IL-6 antibody, heavy chain T63Q, G66D / light chain WT (antibody, human IgG1, V domains shown, Derived as m2; Engineered human IgG1) VH: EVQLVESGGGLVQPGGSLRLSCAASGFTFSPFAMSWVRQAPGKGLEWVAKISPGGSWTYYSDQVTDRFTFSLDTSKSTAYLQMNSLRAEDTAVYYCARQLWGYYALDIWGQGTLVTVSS VL: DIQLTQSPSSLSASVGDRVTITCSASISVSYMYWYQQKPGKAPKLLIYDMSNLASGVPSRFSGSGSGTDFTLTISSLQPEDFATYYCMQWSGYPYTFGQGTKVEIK	pKd	9.71
anti-IL-6 antibody, heavy chain T65Q, G66D / light chain WT (antibody, human IgG1, V domains shown, Derived as m2; Engineered human IgG1) VH: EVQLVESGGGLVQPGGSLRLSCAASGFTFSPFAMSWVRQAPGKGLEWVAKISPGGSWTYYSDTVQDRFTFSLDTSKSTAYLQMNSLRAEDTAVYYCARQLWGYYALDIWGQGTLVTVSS VL: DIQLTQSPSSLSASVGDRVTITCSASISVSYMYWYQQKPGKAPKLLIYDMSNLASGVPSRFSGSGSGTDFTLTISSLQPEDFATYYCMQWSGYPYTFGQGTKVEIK	pKd	9.83
anti-IL-6 antibody, heavy chain S35H, G66D / light chain WT (antibody, human IgG1, V domains shown, Derived as m2; Engineered human IgG1) VH: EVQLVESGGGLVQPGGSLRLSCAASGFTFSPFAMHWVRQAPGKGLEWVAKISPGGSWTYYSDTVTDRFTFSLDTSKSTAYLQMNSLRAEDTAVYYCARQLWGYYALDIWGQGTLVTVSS VL: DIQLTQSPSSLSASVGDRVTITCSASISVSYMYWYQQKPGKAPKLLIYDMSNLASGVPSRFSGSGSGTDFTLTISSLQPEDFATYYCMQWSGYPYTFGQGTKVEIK	pKd	9.98

API: the following record is the query input.
Qu. Item anti-IL-6 antibody, heavy chain WT / light chain WT (antibody, human IgG1, V domains shown, Full antibody on an engineered human IgG1 framework, Fc with L234A, L235A, G237A and L443C (EU numbering), expressed in Expi293 cells; also called wild-type; parent molecule) VH: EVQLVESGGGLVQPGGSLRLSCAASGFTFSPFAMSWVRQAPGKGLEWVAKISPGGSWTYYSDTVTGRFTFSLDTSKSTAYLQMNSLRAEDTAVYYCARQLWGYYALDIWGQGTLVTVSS VL: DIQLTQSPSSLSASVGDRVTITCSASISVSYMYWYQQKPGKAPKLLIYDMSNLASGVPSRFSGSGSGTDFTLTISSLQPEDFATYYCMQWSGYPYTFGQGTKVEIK : provide pKd
Ans. 9.65
